# test context: [M+H]+; instrument: DT; stepped-field
assay metric: collision cross section (N2) (Å²)
Number in Å², nothing else.

Below, each entry is followed by its recorded collision cross section (N2) result.
>  <compound>
CCC(C)C(NC(=O)C(N)Cc1c[nH]c2ccccc12)C(=O)NC(CCCN=C(N)N)C(=O)O (stereo unspecified)

>  <output unit>
Å²

>  <collision cross section (N2)>
215.4

$$$$
>  <compound>
CC(C)[C@H](NC(=O)[C@@H](N)CO)C(=O)N[C@@H](Cc1ccc(O)cc1)C(=O)N[C@@H](CC(=O)O)C(=O)N[C@@H](CO)C(=O)N[C@@H](CCCNC(=N)N)C(=O)O

>  <output unit>
Å²

>  <collision cross section (N2)>
258.4

$$$$
>  <compound>
NCCCC[C@H](NC(=O)CNC(=O)[C@H](Cc1c[nH]c2ccccc12)NC(=O)[C@@H](N)Cc1ccccc1)C(=O)O

>  <output unit>
Å²

>  <collision cross section (N2)>
231

$$$$
>  <compound>
CCC(C)[C@H](NC(=O)[C@H](CO)NC(=O)[C@@H](NC(=O)[C@@H](N)CO)C(C)CC)C(=O)N[C@H](C(=O)NCC(=O)N[C@@H](CO)C(=O)N[C@@H](Cc1ccc(O)cc1)C(=O)N[C@H](C(=O)NCC(=O)N[C@@H](CC(N)=O)C(=O)N[C@@H](CCCNC(=N)N)C(=O)O)C(C)C)C(C)C (stereo partly specified)

>  <output unit>
Å²

>  <collision cross section (N2)>
349.1

$$$$
>  <compound>
CCC(C)[C@H](NC(=O)[C@@H](NC(=O)[C@@H](N)CCSC)C(C)C)C(=O)N[C@@H](CCCNC(=N)N)C(=O)O (stereo partly specified)

>  <output unit>
Å²

>  <collision cross section (N2)>
228.7

$$$$

GET /values?readout=collision cross section (N2)&item= CCC(C)[C@H](N)C(=O)N[C@@H](Cc1c[nH]cn1)C(=O)N[C@@H](CCC(=O)O)C(=O)N[C@@H](Cc1ccc(O)cc1)C(=O)N[C@@H](CCCCN)C(=O)O (stereo partly specified)
258.5

Now try N=C(N)NCCC[C@H](NC(=O)[C@H](CC(=O)O)NC(=O)[C@H](CO)NC(=O)[C@H](CO)NC(=O)[C@@H](N)Cc1ccccc1)C(=O)O .
237.3

Now try C[C@H](N)C(=O)N[C@@H](C)C(=O)NCC(=O)N[C@@H](Cc1c[nH]cn1)C(=O)N[C@@H](CC(=O)O)C(=O)NCC(=O)N[C@@H](CCCCN)C(=O)O .
249

Now try CC(C)C[C@H](NC(=O)[C@H](Cc1ccc(O)cc1)NC(=O)[C@H](C)NC(=O)[C@H](C)NC(=O)[C@@H](N)Cc1ccccc1)C(=O)N[C@@H](CCC(=O)O)C(=O)N[C@@H](CCCNC(=N)N)C(=O)O .
295.5

Now try N=C(N)NCCC[C@H](NC(=O)[C@H](CC(N)=O)NC(=O)[C@H](Cc1ccccc1)NC(=O)[C@@H](N)CC(N)=O)C(=O)O .
225

Now try CC(C)C[C@H](NC(=O)[C@H](CC(=O)O)NC(=O)[C@H](C)N)C(=O)N[C@@H](C)C(=O)N[C@@H](CCCCN)C(=O)O .
228.3
